// data source = ChEMBL document CHEMBL3045519

# Test system: Triticum aestivum
# Assay Comment: Phytotoxicity against Triticum aestivum (wheat) under greenhouse conditions at 1.3 g/a at 1.5-leaf stage measured after 3 weeks by pot test
# Format: organism-based
# Experimental Setup: in vivo, 504 h
Quantity Kind: Activity

CC(Oc1ccc(Oc2cnc3cc(Cl)ccc3n2)cc1)C(=O)NOCC(=O)O (stereo not drawn)
Toxic
CCOC(=O)C(C)Oc1ccc(Oc2ncc(Cl)cc2Cl)cc1 (stereo not drawn)
Toxic

###

# System: Triticum aestivum
# Assay Comment: Phytotoxicity against Triticum aestivum (wheat) under greenhouse conditions at 2.5 g/a at 1.5-leaf stage measured after 3 weeks by pot test
# Type: organism-based
# Experimental Setup: in vivo, 504 h
Quantity Kind: Activity

Examples with answers:
CC(Oc1ccc(Oc2ncc(Cl)cc2Cl)cc1)C(=O)O (configuration not stated)
Toxic
CC(Oc1ccc(Oc2ncc(Cl)cc2Cl)cc1)C(=O)NOCC(=O)O (configuration not stated)
Non-toxic
COC(=O)C(C)Oc1ccc(Oc2ccc(Cl)cc2Cl)cc1 (configuration not stated)
Non-toxic
CCOC(=O)C(C)Oc1ccc(Oc2ncc(Cl)cc2Cl)cc1 (configuration not stated)
Toxic
O=C(O)CONC(=O)COc1ccc(Oc2ncc(Cl)cc2Cl)cc1
Non-toxic

Inquiry: Look up Activity for this molecule: CCCOC(=O)CNC(=O)C(C)Oc1ccc(Oc2ncc(Cl)cc2Cl)cc1 (configuration not stated)
Reply text: Non-toxic

Inquiry: What Activity value was documented for this molecule, CCCCNC(=O)CNC(=O)C(C)Oc1ccc(Oc2ncc(Cl)cc2Cl)cc1 (configuration not stated) ?
Reply text: Toxic

###

# Tested on: Triticum aestivum
# Assay Comment: Phytotoxicity against Triticum aestivum (wheat) under greenhouse conditions at 2.5 g/a at 1.5-leaf stage measured after 3 weeks by pot test
# Type: organism-based
# Experimental Setup: in vivo, 504 h
Quantity Kind: Activity

Examples from the recorded data:
CC(Oc1ccc(Oc2ncc(C(F)(F)F)cc2Cl)cc1)C(=O)O (stereo not given)
Toxic
COC(=O)CNC(=O)C(C)Oc1ccc(Oc2ncc(Cl)cc2Cl)cc1 (stereo not given)
Non-toxic
CC(Oc1ccc(Oc2ncc(Cl)cc2Cl)cc1)C(=O)N(C)OCC(=O)O (stereo not given)
Non-toxic
CC(Oc1ccc(Oc2ccc(C(F)(F)F)cn2)cc1)C(=O)NOCC(=O)O (stereo not given)
Toxic

Next item in the queue.
Inquiry: Given the molecule CC(Oc1ccc(Oc2cnc3cc(Cl)ccc3n2)cc1)C(=O)NOCC(=O)O (stereo not given) , what is its reported Activity?
Reply text: Toxic
